Origin of values: PubChem BioAssay AID1117327

# Tested on: C2C12 + WNT3A conditioned medium, alkaline phosphatase
# measurement-protocol: alkaline phosphatase induction in C2C12 cells, dose response, cell-based, WNT3A-conditioned medium (AID 1117327)
The source made the active and inactive calls. No rule for the calls is given here.
property-label: IC50

Worked examples, 4 compounds total:
[
  {
    "compound": "C=C(C)[C@H]1Cc2c(ccc3c2O[C@@H]2COc4cc(OC)c(OC)cc4[C@@H]2C3=O)O1",
    "IC50": "254 nM"
  },
  {
    "compound": "O=C(Nc1ccc([N+](=O)[O-])cc1Cl)c1cc(Cl)ccc1O",
    "IC50": "> 20000 nM (inactive)"
  },
  {
    "compound": "CCCCCCNC(=O)n1cc(F)c(=O)[nH]c1=O",
    "IC50": "5550 nM (inactive)"
  },
  {
    "compound": "O=c1c(-c2ccccc2)c1-c1ccccc1",
    "IC50": "3620 nM"
  }
]

Provide IC50 value for the following compound: Cc1cc(=O)c2c(O)c3c(O)cc(=O)c4c3c3c(cc(O)c1c23)C(C)(C)C=4O
2910 nM

Provide IC50 value for the following compound: CCCCc1ccc2nc(NC(=O)OC)[nH]c2c1
68.2 nM

Provide IC50 value for the following compound: COc1cc([C@@H]2c3cc4c(cc3[C@@H](O[C@@H]3O[C@@H]5CO[C@@H](C)O[C@@H]5[C@H](O)[C@@H]3O)[C@H]3COC(=O)[C@H]23)OCO4)cc(OC)c1O
> 20000 nM (inactive)

Provide IC50 value for the following compound: [O-][n+]1ccccc1SSc1cccc[n+]1[O-]
131 nM

Provide IC50 value for the following compound: Cc1ccccc1C(=O)Nc1ccc(C(=O)N2CCCC(N(C)C)c3ccccc32)cc1 (stereo not given)
9980 nM (inactive)

Provide IC50 value for the following compound: O=C1c2c(O)ccc(O)c2C(=O)c2c(NCCNCCO)ccc(NCCNCCO)c21
1510 nM

Provide IC50 value for the following compound: CCCCCCCCCCCCCC[N+](C)(C)C
> 20000 nM (inactive)

Provide IC50 value for the following compound: CCCN(CCC)C(=O)C(CCC(=O)OCCCN1CCN(CCOC(=O)Cc2c(C)n(C(=O)c3ccc(Cl)cc3)c3ccc(OC)cc23)CC1)NC(=O)c1ccccc1 (stereo not given)
13200 nM (inactive)

Provide IC50 value for the following compound: C#C[C@]1(O)CC[C@H]2[C@@H]3CCc4cc(OC5CCCC5)ccc4[C@H]3CC[C@@]21C
> 20000 nM (inactive)

Provide IC50 value for the following compound: CCCCCCCCCCCCCCC[C@H](O)[C@@H](N)CO
> 20000 nM (inactive)

Provide IC50 value for the following compound: CSc1ccc2c(c1)C(N1CCN(C)CC1)Cc1ccccc1S2 (stereo not given)
> 20000 nM (inactive)

Provide IC50 value for the following compound: Cc1nc(N)nc(N)c1-c1ccc(Cl)c(Cl)c1
29.9 nM

Provide IC50 value for the following compound: CC(C)C[C@H](NC(=O)[C@H](CCc1ccccc1)NC(=O)CN1CCOCC1)C(=O)N[C@@H](Cc1ccccc1)C(=O)N[C@@H](CC(C)C)C(=O)[C@@]1(C)CO1
15.2 nM

Provide IC50 value for the following compound: Oc1c(Cl)cc(Cl)cc1Sc1cc(Cl)cc(Cl)c1O
> 20000 nM (inactive)

Provide IC50 value for the following compound: O[C@@H](c1cc(C(F)(F)F)nc2c(C(F)(F)F)cccc12)[C@H]1CCCCN1
> 20000 nM (inactive)

Provide IC50 value for the following compound: Cc1ccc2nc(N)[nH]c(=O)c2c1Sc1ccncc1
244 nM
